Field: IC50. Provide a value for each of the compounds that follow.
target: Beta-secretase 1 (Homo sapiens, UniProt P56817); test: Inhibition of BACE1 in human SHSY5Y cells expressing APP NFEV and wild-type alpha-cleavage site; assay type: cell-based, SH-SY5Y
Sequence (P56817 whole entry): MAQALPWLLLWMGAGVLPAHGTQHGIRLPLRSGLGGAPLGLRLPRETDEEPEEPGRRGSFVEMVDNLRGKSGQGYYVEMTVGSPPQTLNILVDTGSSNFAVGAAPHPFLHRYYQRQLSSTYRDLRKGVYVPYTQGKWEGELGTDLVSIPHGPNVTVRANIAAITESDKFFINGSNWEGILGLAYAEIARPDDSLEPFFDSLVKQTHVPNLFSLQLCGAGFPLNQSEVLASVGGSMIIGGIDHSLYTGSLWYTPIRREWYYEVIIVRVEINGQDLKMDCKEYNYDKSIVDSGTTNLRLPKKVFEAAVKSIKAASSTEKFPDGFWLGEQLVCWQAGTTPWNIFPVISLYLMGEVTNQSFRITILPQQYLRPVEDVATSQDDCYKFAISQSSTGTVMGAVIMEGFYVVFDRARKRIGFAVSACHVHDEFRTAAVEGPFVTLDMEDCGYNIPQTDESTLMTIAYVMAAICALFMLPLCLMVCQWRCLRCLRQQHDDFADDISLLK

O=C1Nc2cc(C(CO)NCc3ccccc3)ccc2C(c2ccccc2)=N[C@H]1c1ccccc1 (some centres undefined) | > 11000 nM

// batch mode: one IC50 value per listed entry
1. O=C(N[C@@H](C(=O)Nc1cc(C(O)CNCc2ccccc2)ccc1C(=O)c1ccccc1)c1ccccc1)OCc1ccccc1 (some centres undefined)
2. O=C(N[C@H](C(=O)Nc1cc(C(O)CNCc2ccccc2)ccc1C(=O)c1ccccc1)c1ccccc1)OCc1ccccc1 (some centres undefined)
3. O=C(N[C@H](C(=O)Nc1cc(C(CO)NCc2ccccc2)ccc1C(=O)c1ccccc1)c1ccccc1)OCc1ccccc1 (some centres undefined)

Result block:
["> 1200 nM", "> 1200 nM", "> 1200 nM"]

---

molecular target: UniProt:P56817; assay: Inhibition of human recombinant BACE-1 using acetyl-C(W8044-Eu)-EVNLDAEFK-QSY7 as substrate by TR-FRET assay
METRIC NAME: IC50 (µM)
Answers are plain numbers, in µM.

Worked examples, 3 molecules total:
CC(C)(C)OC(=O)N1CCN(c2cccc3c2NC(=O)[C@@H](c2ccccc2)N=C3c2ccccc2)CC1 | 43
O=C(N[C@@H](C(=O)Nc1cc(C(O)CNCc2ccccc2)ccc1C(=O)c1ccccc1)c1ccccc1)OCc1ccccc1 (some centres undefined) | 2.6
O=C1Nc2ccccc2C(c2ccccc2)=N[C@H]1C(O)CN1CCNCC1 (some centres undefined) | 12.5

Here is the next item to consider.
Query block: I have this molecule here, O=C1Nc2cc(C(CO)NCc3ccccc3)ccc2C(c2ccccc2)=N[C@@H]1c1ccccc1 (some centres undefined) , and I need its recorded IC50.
Result block: 10.9

Sourced from ChEMBL document CHEMBL2311364
